Measured IC50, listed per entry.
Assayed System: Menin-MLL (Homo sapiens)
Construct: His-Menin (M1-L615 end); purchased BIORTUS BP9210
Sequence (O00255 1-615 isoform O00255-1): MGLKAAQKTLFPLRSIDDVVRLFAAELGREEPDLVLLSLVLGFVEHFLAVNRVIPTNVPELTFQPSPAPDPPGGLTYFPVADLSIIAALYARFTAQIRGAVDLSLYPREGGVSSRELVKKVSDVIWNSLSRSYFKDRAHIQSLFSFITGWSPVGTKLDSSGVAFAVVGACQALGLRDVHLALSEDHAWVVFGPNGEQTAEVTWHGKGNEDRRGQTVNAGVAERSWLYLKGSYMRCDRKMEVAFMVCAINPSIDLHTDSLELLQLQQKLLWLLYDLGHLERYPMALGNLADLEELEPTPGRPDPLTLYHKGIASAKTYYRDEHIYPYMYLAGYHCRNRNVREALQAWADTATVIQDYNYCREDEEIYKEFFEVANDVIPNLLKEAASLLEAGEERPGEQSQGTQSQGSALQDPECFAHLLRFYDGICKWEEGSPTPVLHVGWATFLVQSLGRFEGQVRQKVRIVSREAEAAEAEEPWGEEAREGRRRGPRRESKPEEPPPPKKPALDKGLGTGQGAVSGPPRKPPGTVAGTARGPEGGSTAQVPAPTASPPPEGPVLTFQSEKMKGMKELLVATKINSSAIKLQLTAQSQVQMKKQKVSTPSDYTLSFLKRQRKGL
Test Description: Inhibitory activity against Menin-MLL binding (fluorescence polarization)
Setup Conditions: fluorescence polarization; 150 nM His-Menin, 15 nM FITC-MLL; 25°C for 60 min; read-out: Menin-MLL IC50
Value Kind: IC50 (nM)

INSERT INTO results (compound, assayed_system, result) VALUES
  ('CCN(C(=O)c1cc(F)ccc1-c1cc(C2CN([C@H](CN3CCN(CCOC)CC3)C(C)C)C2)cn2c(C)ncc12)C(C)C', 'Menin-MLL (Homo sapiens)', 8.4),
  ('COC1(CN2CC(c3cc(-c4ccc(F)cc4C(=O)N4CCOC[C@H]4C)c4c(F)nc(C)n4c3)C2)CCOCC1', 'Menin-MLL (Homo sapiens)', 180),
  ('CCN(C(=O)c1cc(F)ccc1-c1cc(C2CN([C@H](C)C3CCN(C(C)=O)CC3)C2)cn2c(C)ncc12)C(C)C', 'Menin-MLL (Homo sapiens)', 79),
  ('CCC(=O)N1CCC([C@H](C)N2CC(c3cc(-c4ccc(F)cc4C(=O)N4CCOC[C@H]4C)c4c(F)nc(C)n4c3)C2)CC1', 'Menin-MLL (Homo sapiens)', 5),
  ('CCN(C(=O)c1cc(F)ccc1-c1cc(N2CCC(NCc3ccc(-c4cc(OC)c(OC)nn4)cc3F)CC2)cn2cncc12)C(C)C', 'Menin-MLL (Homo sapiens)', 45),
  ('CCN(C(=O)c1cc(F)ccc1-c1cc(C2CN([C@H](CCCN3C[C@H]4C[C@@H]3CO4)C(C)C)C2)cn2c(C)ncc12)C(C)C', 'Menin-MLL (Homo sapiens)', 1.8),
  ('CCN(C(=O)c1cc(F)ccc1-c1cc(C2=CCC(NCc3ccc(-c4cc(OC)c(OC)nn4)cc3)CC2)cn2cncc12)C(C)C (centres unmarked)', 'Menin-MLL (Homo sapiens)', 9.5),
  ('Cc1nc(F)c2c(-c3ccc(F)cc3C(=O)N3CCOC[C@H]3C)cc(C3CN([C@H](C)C4CCOCC4)C3)cn12', 'Menin-MLL (Homo sapiens)', 80),
  ('Cc1nc(F)c2c(-c3ccc(F)cc3C(=O)N3CCOC[C@H]3C)cc(C3CN([C@H](CCCN4CCN(C5CC5)CC4)C(C)C)C3)cn12', 'Menin-MLL (Homo sapiens)', 3.3),
  ('Cc1ncc2c(-c3ccc(F)cc3C(=O)N3CCOC[C@H]3C)cc(C3CN([C@H](CCCN4CCN(CC(F)(F)F)CC4)C(C)C)C3)cn12', 'Menin-MLL (Homo sapiens)', 4.7),
  ('CCNC(=O)N1CCC(C(C)N2CC(c3cc(-c4ccc(F)cc4C(=O)N(CC)C(C)C)c4cnc(C)n4c3)C2)CC1 (centres unmarked)', 'Menin-MLL (Homo sapiens)', 4),
  ('Cc1nc(F)c2c(-c3ccc(F)cc3C(=O)N3[C@H](C)COC[C@H]3C)cc(C3CN(CC4CCN(C(=O)c5cn[nH]c5)CC4)C3)cn12', 'Menin-MLL (Homo sapiens)', 9.5),
  ('CCN(C(=O)c1cc(F)ccc1-c1cc(C2CCN(C[C@]3(O)CC[C@@H](NC(=O)OC(C)(C)C)CC3)C2)cc2c1cnn2C)C(C)C (some centres unmarked)', 'Menin-MLL (Homo sapiens)', 105),
  ('COCC1CN(CCC[C@H](C(C)C)N2CC(c3cc(-c4ccc(F)cc4C(=O)N4CCOC[C@H]4C)c4c(F)nc(C)n4c3)C2)C1', 'Menin-MLL (Homo sapiens)', 3.3);

Numbers sourced from patent EP4782453A1.
